Target: OPRL1 (Homo sapiens)
Construct: purchased Promega (in-house HiBiT-GPCR construct library, NanoBRET)
Sequence (P41146 whole entry): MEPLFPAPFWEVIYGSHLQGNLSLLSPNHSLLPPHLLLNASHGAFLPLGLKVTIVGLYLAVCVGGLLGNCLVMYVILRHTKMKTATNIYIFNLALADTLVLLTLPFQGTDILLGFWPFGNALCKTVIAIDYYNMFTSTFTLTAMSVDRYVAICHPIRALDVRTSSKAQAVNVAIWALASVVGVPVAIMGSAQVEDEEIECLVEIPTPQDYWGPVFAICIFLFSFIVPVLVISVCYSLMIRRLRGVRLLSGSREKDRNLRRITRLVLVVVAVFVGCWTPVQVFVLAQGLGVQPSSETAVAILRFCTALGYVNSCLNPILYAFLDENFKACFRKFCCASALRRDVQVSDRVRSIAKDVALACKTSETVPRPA
Assay: NanoBRET screen HiBiT-OPRL1 in HEK293
Format: binding
Details: OPRL1; tracer 0.1μM
Define the label as YES when NanoBRET Fold Response is strictly less than 1 and as NO in all remaining cases.

*Q* Regarding CC(C)N(CC[C@H](c1ccccc1)c1cc(CCNC(=O)c2ccc(CNC(=O)CCc3ccc4n3[B-](F)(F)[N+]3=C(c5ccc[nH]5)C=CC3=C4)cc2)ccc1O)C(C)C , kindly confirm whether its NanoBRET Fold Response is beneath 1.
*A* YES

*Q* Regarding CCCn1c(=O)c2[nH]c(-c3ccc(OCC(=O)NCCNC(=O)CCOCCNC(=O)c4ccc(CNC(=O)CCc5ccc6n5[B-](F)(F)[N+]5=C(c7ccc[nH]7)C=CC5=C6)cc4)cc3)nc2n(CCC)c1=O , kindly confirm whether its NanoBRET Fold Response is beneath 1.
*A* NO

*Q* Regarding COc1ccccc1N1CCN(CCCCN2C(=O)c3ccc(CNC(=O)CCOCCOCCOCCOCCNC(=O)CCc4ccc5n4[B-](F)(F)[N+]4=C(c6ccc[nH]6)C=CC4=C5)cc3C2=O)CC1 , kindly confirm whether its NanoBRET Fold Response is beneath 1.
*A* YES

*Q* Regarding N#CN=C(NCCCOc1cccc(CN2CCCCC2)c1)NCCNC(=O)CCOCCOCCOCCOCCNC(=O)CCc1ccc2n1[B-](F)(F)[N+]1=C(c3ccc[nH]3)C=CC1=C2 , kindly confirm whether its NanoBRET Fold Response is beneath 1.
*A* NO

*Q* Regarding O=C(CCc1ccc2n1[B-](F)(F)[N+]1=C(c3ccc[nH]3)C=CC1=C2)NCc1ccc(C(=O)NCCOCCC(=O)N[C@@H]2CC[C@@]3(O)[C@H]4Cc5ccc(O)c6c5[C@@]3(CCN4CC3CC3)[C@H]2O6)cc1 [Naltrexone-3-NB590] , kindly confirm whether its NanoBRET Fold Response is beneath 1.
*A* NO

*Q* Regarding COc1ccccc1N1CCN(CCCCN2C(=O)c3ccc(CNC(=O)CCOCCNC(=O)c4ccc(CNC(=O)CCc5ccc6n5[B-](F)(F)[N+]5=C(c7ccc[nH]7)C=CC5=C6)cc4)cc3C2=O)CC1 , kindly confirm whether its NanoBRET Fold Response is beneath 1.
*A* NO

*Q* Regarding O=C(CCc1ccc2n1[B-](F)(F)[N+]1=C(c3ccc[nH]3)C=CC1=C2)NCCOCCOCCNC(=O)OCCOCCN1CCN(C2=Nc3ccccc3Sc3ccccc32)CC1 , kindly confirm whether its NanoBRET Fold Response is beneath 1.
*A* YES

*Q* Regarding Cc1nc2n(c(=O)c1CCN1CCC(c3noc4cc(F)ccc34)CC1)CCCC2OC(=O)NCCOCCOCCOCCOCCNC(=O)CCc1ccc2n1[B-](F)(F)[N+]1=C(c3ccc[nH]3)C=CC1=C2 (centres unmarked) , kindly confirm whether its NanoBRET Fold Response is beneath 1.
*A* YES

*Q* Regarding CC(C)N(CC[C@H](c1ccccc1)c1cc(CCNC(=O)CCOCCOCCOCCOCCNC(=O)CCc2ccc3n2[B-](F)(F)[N+]2=C(c4ccc[nH]4)C=CC2=C3)ccc1O)C(C)C , kindly confirm whether its NanoBRET Fold Response is beneath 1.
*A* NO

---

Molecular target: PTGER1 (Homo sapiens)
Construct: purchased Promega (in-house HiBiT-GPCR construct library, NanoBRET)
Sequence (P34995 1-402): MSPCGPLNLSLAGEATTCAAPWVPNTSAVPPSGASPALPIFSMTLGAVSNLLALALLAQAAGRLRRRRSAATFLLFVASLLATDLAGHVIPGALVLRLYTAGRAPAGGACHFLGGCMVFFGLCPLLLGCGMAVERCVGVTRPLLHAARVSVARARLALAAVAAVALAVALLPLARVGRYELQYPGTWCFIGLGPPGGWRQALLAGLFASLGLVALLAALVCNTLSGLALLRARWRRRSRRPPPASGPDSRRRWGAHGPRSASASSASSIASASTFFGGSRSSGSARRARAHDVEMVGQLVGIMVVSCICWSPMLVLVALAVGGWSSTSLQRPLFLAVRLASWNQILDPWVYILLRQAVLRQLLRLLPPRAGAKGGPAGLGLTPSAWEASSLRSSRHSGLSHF
Assay: NanoBRET screen HiBiT-PTGER1 in HEK293
Type: binding
Conditions: PTGER1; tracer 0.1μM
Assign NanoBRET Fold Response to each entry below.
Respond with the number and no other words.

*Q* Please give the measured NanoBRET Fold Response for this compound: N#CN=C(NCCCOc1cccc(CN2CCCCC2)c1)NCCNC(=O)CCOCCOCCOCCOCCNC(=O)CCc1ccc2n1[B-](F)(F)[N+]1=C(c3ccc[nH]3)C=CC1=C2
*A* 0.97

*Q* Please give the measured NanoBRET Fold Response for this compound: O=C(CCc1ccc2n1[B-](F)(F)[N+]1=C(c3ccc[nH]3)C=CC1=C2)NCc1ccc(C(=O)NCCOCCC(=O)N[C@@H]2CC[C@@]3(O)[C@H]4Cc5ccc(O)c6c5[C@@]3(CCN4CC3CC3)[C@H]2O6)cc1 [Naltrexone-3-NB590]
*A* 1.01

*Q* Please give the measured NanoBRET Fold Response for this compound: CCCn1c(=O)c2[nH]c(-c3ccc(OCC(=O)NCCNC(=O)CCOCCNC(=O)c4ccc(CNC(=O)CCc5ccc6n5[B-](F)(F)[N+]5=C(c7ccc[nH]7)C=CC5=C6)cc4)cc3)nc2n(CCC)c1=O
*A* 1.06

*Q* Please give the measured NanoBRET Fold Response for this compound: CC(C)N(CC[C@H](c1ccccc1)c1cc(CCNC(=O)c2ccc(CNC(=O)CCc3ccc4n3[B-](F)(F)[N+]3=C(c5ccc[nH]5)C=CC3=C4)cc2)ccc1O)C(C)C
*A* 1.03

*Q* Please give the measured NanoBRET Fold Response for this compound: O=C(CCc1ccc2n1[B-](F)(F)[N+]1=C(c3ccc[nH]3)C=CC1=C2)NCCOCCOCCNC(=O)OCCOCCN1CCN(C2=Nc3ccccc3Sc3ccccc32)CC1
*A* 1.07

*Q* Please give the measured NanoBRET Fold Response for this compound: CC(C)N(CC[C@H](c1ccccc1)c1cc(CCNC(=O)CCOCCOCCOCCOCCNC(=O)CCc2ccc3n2[B-](F)(F)[N+]2=C(c4ccc[nH]4)C=CC2=C3)ccc1O)C(C)C
*A* 1.00

*Q* Please give the measured NanoBRET Fold Response for this compound: Cc1nc2n(c(=O)c1CCN1CCC(c3noc4cc(F)ccc34)CC1)CCCC2OC(=O)NCCOCCOCCOCCOCCNC(=O)CCc1ccc2n1[B-](F)(F)[N+]1=C(c3ccc[nH]3)C=CC1=C2 (centres unmarked)
*A* 1.04

*Q* Please give the measured NanoBRET Fold Response for this compound: Cc1cc2c(s1)Nc1ccccc1N=C2N1CCN(CCCNC(=O)CCOCCOCCOCCOCCNC(=O)CCc2ccc3n2[B-](F)(F)[N+]2=C(c4ccc[nH]4)C=CC2=C3)CC1
*A* 1.03

---

Target: CHRM3 (Homo sapiens, UniProt P20309)
Construct: purchased Promega (in-house HiBiT-GPCR construct library, NanoBRET)
Sequence (P20309 whole entry): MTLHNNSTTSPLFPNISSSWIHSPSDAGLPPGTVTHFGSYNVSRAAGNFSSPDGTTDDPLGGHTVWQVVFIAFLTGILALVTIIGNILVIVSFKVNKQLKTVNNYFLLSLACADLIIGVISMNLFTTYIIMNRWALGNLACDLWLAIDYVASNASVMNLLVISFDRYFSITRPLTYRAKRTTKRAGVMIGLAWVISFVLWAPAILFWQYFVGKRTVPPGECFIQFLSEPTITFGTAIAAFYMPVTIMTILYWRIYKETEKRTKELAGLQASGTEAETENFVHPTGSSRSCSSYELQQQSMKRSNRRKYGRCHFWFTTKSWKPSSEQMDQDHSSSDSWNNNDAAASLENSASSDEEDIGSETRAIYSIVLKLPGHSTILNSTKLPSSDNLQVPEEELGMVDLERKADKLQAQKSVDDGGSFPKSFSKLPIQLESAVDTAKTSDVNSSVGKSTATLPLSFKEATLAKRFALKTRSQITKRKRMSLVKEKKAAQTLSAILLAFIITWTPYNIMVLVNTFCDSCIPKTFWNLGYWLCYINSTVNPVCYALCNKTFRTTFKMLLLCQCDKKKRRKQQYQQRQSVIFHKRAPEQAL
Experiment: NanoBRET screen HiBiT-CHRM3 in HEK293
Format: binding
Settings: CHRM3; tracer 1μM
Metric: NanoBRET Fold Response
Respond with the number and no other words.

*Q* Please give the measured NanoBRET Fold Response for this molecule: COc1ccccc1N1CCN(CCCCN2C(=O)c3ccc(CNC(=O)CCOCCNC(=O)c4ccc(CNC(=O)CCc5ccc6n5[B-](F)(F)[N+]5=C(c7ccc[nH]7)C=CC5=C6)cc4)cc3C2=O)CC1 [NAN-190-3-NB590]
*A* 1.12

*Q* Please give the measured NanoBRET Fold Response for this molecule: CC(C)N(CC[C@H](c1ccccc1)c1cc(CCNC(=O)CCOCCOCCOCCOCCNC(=O)CCc2ccc3n2[B-](F)(F)[N+]2=C(c4ccc[nH]4)C=CC2=C3)ccc1O)C(C)C [Tolterodine-2-NB590]
*A* 1.52

*Q* Please give the measured NanoBRET Fold Response for this molecule: N#CN=C(NCCCOc1cccc(CN2CCCCC2)c1)NCCNC(=O)CCOCCOCCOCCOCCNC(=O)CCc1ccc2n1[B-](F)(F)[N+]1=C(c3ccc[nH]3)C=CC1=C2 [Aminopotentidine-2-NB590]
*A* 1.04

*Q* Please give the measured NanoBRET Fold Response for this molecule: CC(C)N(CC[C@H](c1ccccc1)c1cc(CCNC(=O)c2ccc(CNC(=O)CCc3ccc4n3[B-](F)(F)[N+]3=C(c5ccc[nH]5)C=CC3=C4)cc2)ccc1O)C(C)C [Tolterodine-BZ-NB590]
*A* 1.25

*Q* Please give the measured NanoBRET Fold Response for this molecule: COc1ccccc1N1CCN(CCCCN2C(=O)c3ccc(CNC(=O)CCOCCOCCOCCOCCNC(=O)CCc4ccc5n4[B-](F)(F)[N+]4=C(c6ccc[nH]6)C=CC4=C5)cc3C2=O)CC1 [NAN-190-2-NB590]
*A* 0.99

*Q* Please give the measured NanoBRET Fold Response for this molecule: CCCn1c(=O)c2[nH]c(-c3ccc(OCC(=O)NCCNC(=O)CCOCCNC(=O)c4ccc(CNC(=O)CCc5ccc6n5[B-](F)(F)[N+]5=C(c7ccc[nH]7)C=CC5=C6)cc4)cc3)nc2n(CCC)c1=O [XAC-3-NB590]
*A* 1.29

Data credit: paper PMC8151276
